Data origin, for the record: PubChem BioAssay AID485346

# Subject Of Test: Protein Mdm4 (Homo sapiens) + E3 ubiquitin-protein ligase Mdm2 (Homo sapiens) (UniProt O15151+Q00987)
# Sequence (O15151 whole entry, looked up): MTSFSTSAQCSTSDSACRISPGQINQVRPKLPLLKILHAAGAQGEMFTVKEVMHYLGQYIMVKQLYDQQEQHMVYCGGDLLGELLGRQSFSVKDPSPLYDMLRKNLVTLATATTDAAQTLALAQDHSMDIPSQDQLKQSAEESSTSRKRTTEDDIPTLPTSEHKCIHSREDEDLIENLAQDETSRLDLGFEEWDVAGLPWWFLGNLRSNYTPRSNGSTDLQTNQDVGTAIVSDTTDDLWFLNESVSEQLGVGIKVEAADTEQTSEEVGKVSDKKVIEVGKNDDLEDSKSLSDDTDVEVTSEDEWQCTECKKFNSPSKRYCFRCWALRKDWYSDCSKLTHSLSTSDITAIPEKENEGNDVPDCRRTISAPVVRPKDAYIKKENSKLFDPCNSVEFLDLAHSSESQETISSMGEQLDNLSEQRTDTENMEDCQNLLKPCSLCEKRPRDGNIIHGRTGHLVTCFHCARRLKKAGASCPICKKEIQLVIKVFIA
# Sequence (Q00987 whole entry, looked up): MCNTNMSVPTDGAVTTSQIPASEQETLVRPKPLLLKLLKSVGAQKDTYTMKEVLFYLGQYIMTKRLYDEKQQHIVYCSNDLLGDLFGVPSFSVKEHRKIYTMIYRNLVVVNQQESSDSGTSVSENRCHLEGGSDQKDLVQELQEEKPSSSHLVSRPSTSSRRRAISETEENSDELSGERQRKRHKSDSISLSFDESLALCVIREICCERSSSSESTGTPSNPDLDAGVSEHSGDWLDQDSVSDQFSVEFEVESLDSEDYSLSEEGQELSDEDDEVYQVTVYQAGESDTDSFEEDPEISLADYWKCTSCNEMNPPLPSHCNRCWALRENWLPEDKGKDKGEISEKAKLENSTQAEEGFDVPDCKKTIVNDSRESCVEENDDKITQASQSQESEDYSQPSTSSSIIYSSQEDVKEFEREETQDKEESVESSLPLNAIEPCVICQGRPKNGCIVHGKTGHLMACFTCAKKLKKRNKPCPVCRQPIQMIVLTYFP
# Assay: inhibitors of human Mdm2-MdmX association, primary screen, cell-based, luminescence, split luciferase, SaOS-2, uHTS (AID 485346)
# Test Conditions: SaOS-2 split-luciferase Mdm2/MdmX complementation, at 8 µM, stronger effect = higher value
Screen size: about 330,000 compounds; about 10,000 (3%) were called active. For the sample, actives were picked, then their nearest neighbours and some compounds at random.
Observed Property: inhibition (%)
One number for each entry, in %.

Answered examples (8):
inhibition measured on C/C(=N\NC(=O)OC(C)(C)C)c1ccc[nH]1 = -29.2

inhibition measured on CC1CCN(CCCNC(=O)CN2C(=O)CSc3ccc(S(=O)(=O)N4CCCCC4)cc32)CC1 = 13

inhibition measured on CCN1C(=O)/C(=C\N2CCOCC2)SC1=S = 7.76

inhibition measured on CCN1C(=O)N[C@@H](c2ccccc2)C(C(=O)OC)=C1C = 6.41

inhibition measured on O=C(Cc1ccc(S(=O)(=O)N2CCOCC2)s1)NCCOc1ccccc1F = 11.2

inhibition measured on CC(OC(=O)CNC(=O)c1ccc(Cl)c([N+](=O)[O-])c1)C(=O)NCc1ccco1 (configuration not stated) = 27.3

inhibition measured on OC(COc1ccc(Br)cc1)CN1CCCC1 (configuration not stated) = 2.28

inhibition measured on C=CCn1c(SCC(=O)NCC2CCCO2)nc2sc(C)c(C)c2c1=O (configuration not stated) = 2.91

Provide inhibition for all items below, preserving their order.
1. CCn1c(SCC(=O)Nc2cc(C)ccc2C)nnc1-c1cnccn1
2. Cc1ccc(OCCCC(=O)Nc2ccc3c(c2)OCCO3)cc1
3. CC1=C(C(=O)OCc2ccccc2)C(c2ccc(C(F)(F)F)cc2)NC(=O)N1CCCCCC(=O)O (configuration not stated)
4. COc1ccc(CCNC(=O)COC(=O)c2cnc(Cl)c(Cl)c2)cc1
5. CN(C)c1ccc(-n2cccc2/C=C2/SC(=Nc3ccc(F)cc3)NC2=O)cc1

Completion:
1: -18.6; 2: 17; 3: 4.93; 4: -24.9; 5: 53.3

Provide inhibition for all items below, preserving their order.
1. O=C(CSc1ccccc1)Nc1nnc(/C=C/c2ccccc2)s1
2. CC(=O)Nc1ccc(NC(=O)C(C)OC(=O)c2ccccc2C(=O)c2ccc(Cl)c([N+](=O)[O-])c2)cc1 (configuration not stated)
3. Cc1ccc(OCc2nnc(NC(=O)OCC(C)C)s2)cc1
4. CC(C(=O)O)N1C(=O)c2cccc3cccc1c23 (configuration not stated)
5. CCCCNC(=O)C(C)N(CCN(C)C)C(=O)CCCN1C(=O)NC(c2ccc(Cl)cc2)C(C(=O)OCc2ccccc2)=C1C (configuration not stated)
6. Cc1ccccc1CNC(=O)CCC(=O)N1Cc2ccccc2Oc2ncccc21
7. COc1ccc(C(=O)CSc2nnc(NC(=O)C3CC(=O)N(c4cccc(OC)c4)C3)s2)cc1 (configuration not stated)
8. CCN1C(=O)/C(=C\N2CCN(c3cccc(Cl)c3)CC2)SC1=S

Completion:
1. -2.82
2. 98.6
3. -16.4
4. 14.4
5. 84.8
6. 18.7
7. -12.2
8. 64.2

Provide inhibition for all items below, preserving their order.
1. O=C(CN1C(=O)C2C3CCC(C3)C2C1=O)Oc1ccc2ccccc2c1 (configuration not stated)
2. COC(=O)CCCCCN1C(=O)NC(c2ccc(-c3ccccc3)cc2)C(C(=O)OCc2ccccc2)=C1C (configuration not stated)
3. COc1ccc(Cl)cc1NC(=O)NC(C)C(C)(C)C (configuration not stated)

Completion:
1. 12
2. 22.2
3. -21.5

Provide inhibition for all items below, preserving their order.
1. Cc1ccc(NC(=O)/C(=C/c2ccc([N+](=O)[O-])cc2)NC(=O)c2ccccc2)cc1
2. O=c1c2ccccc2nc2n1C(CSCc1cccc(C(F)(F)F)c1)CS2 (configuration not stated)
3. C=CCn1c(SCC(=O)NCCCO)nc2sc3c(c2c1=O)CCC3
4. CN1C(=O)/C(=C/c2ccco2)SC1=Nc1cccc(C(=O)O)c1
5. CCOc1ncccc1C(=O)Nc1ccc(S(=O)(=O)Nc2nc(C)cc(C)n2)cc1

Completion:
[17.1, 0.237, 0.393, -14.1, -16.7]

Provide inhibition for all items below, preserving their order.
1. O=C(Nc1ccc(Cl)cc1)Nc1nnc(/C=C/c2ccccc2)s1
2. CCOC(=O)/C(=C\c1ccc([N+](=O)[O-])cc1)C(=O)c1cc(C(C)=O)c(Nc2ccccc2)s1

Completion:
[84.4, 99.3]

Provide inhibition for all items below, preserving their order.
1. O=C(c1ccc(Cl)cc1)N1N=C(c2ccccn2)CC1(O)C(F)(F)F (configuration not stated)
2. NC(=O)CSc1nnc(NC(=O)c2ccc3ccccc3c2)s1
3. O=C(c1cccs1)N(Cc1cc2ccccc2[nH]c1=O)CC1CCCO1 (configuration not stated)
4. O=C(NC1CCc2ccccc21)C12CN(Cc3ccccc3)CC1C(c1cccc([N+](=O)[O-])c1)=NO2 (configuration not stated)
5. O=C(CCCN1C(=O)/C(=C/c2ccco2)SC1=S)Nc1ccccc1
6. N#Cc1cccc(NC(=O)COC(=O)c2ccccc2C(=O)c2ccc(Cl)c([N+](=O)[O-])c2)c1
7. CCCCNC(=O)C(C)N(CCN(C)C)C(=O)CCCCCN1C(=O)NC(c2ccc(Cl)cc2)C(C(=O)OCc2ccccc2)=C1C (configuration not stated)
8. CC(C)c1nc(CNC(=O)CC2C(=O)NCCN2Cc2ccoc2)cs1 (configuration not stated)

Completion:
1. 53
2. -8.44
3. -37.5
4. 0.069
5. 68.6
6. 98.1
7. 97.4
8. 17

Provide inhibition for all items below, preserving their order.
1. CC(=O)Nc1ccc(S(=O)(=O)Nc2cc(C)cn(Cc3ccc(C)cc3)c2=O)cc1
2. O=C(Nc1ccc2sc3ccccc3c(=O)c2c1)c1ccccc1Cl
3. COc1ccc(S(=O)(=O)N2CCOCC2)c(C)c1C

Completion:
17.7
-48
4.93

---

# Subject Of Test: Protein Mdm4 (Homo sapiens) + E3 ubiquitin-protein ligase Mdm2 (Homo sapiens) (UniProt O15151+Q00987)
# Assay: inhibitors of human Mdm2-MdmX association, primary screen, cell-based, luminescence, split luciferase, SaOS-2, uHTS (AID 485346)
# Test Conditions: SaOS-2 split-luciferase Mdm2/MdmX complementation, at 8 µM, stronger effect = higher value
The whole screen tested about 330,000 compounds, of which about 10,000 (3%) were called active. Many of the other results were omitted from the sample, so actives are more common in it than they were.
Field: inhibition. Provide a value for each of the compounds that follow.
Give bare numbers, in %.

inhibition measured on Cc1ccc2c(Cl)c(C(=O)Nc3nn[nH]n3)sc2c1 = 16.7

inhibition measured on COc1ccc(Br)cc1C(=O)Nc1cccc(C)c1C = -15.3

inhibition measured on CC#CC[N+](C)(C)CCCCCC = -0.896

inhibition measured on C=CS(=O)c1sc(Cl)c(N2CCOCC2)c1[N+](=O)[O-] (centres undefined) = 25.9

inhibition measured on COc1ccc(NC(=O)CS(=O)(=O)c2ccccc2)cc1 = -16.7

inhibition measured on CCN1C(=O)[C@H]2[C@@H](c3ccc(-c4ccc(F)cc4)cc3)N[C@@](Cc3ccccc3)(C(=O)OC)[C@H]2C1=O = 48

inhibition measured on CC(C)C[C@H](CO)Nc1nc(N(C)c2cccc(Cl)c2)c2ncn(C(C)C)c2n1 = 22.9

inhibition measured on CC(=O)N(Cc1cc(=O)[nH]c2ccccc12)c1ccc(C)cc1C = 15.3

inhibition measured on COc1cc2ccccc2cc1C(=O)N(CCN(C)C)c1nc2c(F)cccc2s1 = 19.4

inhibition measured on COc1ccc(OCC(=O)NNC(=O)C2CCC2)cc1 = 4.55

Provide inhibition for all items below, preserving their order.
1. C#CCOCCOCCOCCNc1nc(N2CCN(C(=O)CCCCCCCCCCNC(=O)Cn3cc(CCCCCN)nn3)CC2)nc(N2CCN(C(=O)CCCCCCCCCCNC(=O)[C@H](CO)n3cc(CCCSC)nn3)CC2)n1
2. Cc1cccc(-[n+]2c(-c3cccc(Br)c3)[nH]c3nc4ccccc4nc32)c1
3. O=S(=O)(c1ccccc1)N1CCC(c2ccccc2)CC1
4. COc1ccc(CCNCC(O)Cn2ccc3ccccc32)cc1OC (centres undefined)
5. CCOC(=O)NC(=O)C(=CNc1cccc(OC)c1)C(=O)NC(=O)OCC

Completion:
11.3
42.8
-19.7
11.5
9.28

---

# Subject Of Test: Protein Mdm4 (Homo sapiens) + E3 ubiquitin-protein ligase Mdm2 (Homo sapiens) (UniProt O15151+Q00987)
# Assay: inhibitors of human Mdm2-MdmX association, primary screen, cell-based, luminescence, split luciferase, SaOS-2, uHTS (AID 485346)
# Test Conditions: SaOS-2 split-luciferase Mdm2/MdmX complementation, at 8 µM, stronger effect = higher value
Screen size: about 330,000 compounds; about 10,000 (3%) were called active. Only a selection was taken, and actives are over-represented in it overall.
Field: inhibition. Provide a value for each of the compounds that follow.
Give bare numbers, in %.

Answered examples (5):
inhibition measured on Cc1nc(NC(=O)c2cccc(Cl)c2)sc1-c1csc(Nc2cccc(Cl)c2)n1 = -2.75

inhibition measured on NC(=O)C1(C(N)=O)OC1c1ccc(Cl)cc1Cl (stereo not drawn) = 20.9

inhibition measured on COc1ccc(N2CCC(CNC(=S)Nc3c(C)cccc3C)C2)cc1 (stereo not drawn) = 0.075

inhibition measured on O=C1CSc2ccc(S(=O)(=O)NCc3ccccc3)cc2N1 = -3.1

inhibition measured on CCOc1ccccc1C1C(C(=O)OC)=CN(C)C=C1C(=O)OC = 8.07

Provide inhibition for all items below, preserving their order.
1. COC(=O)C1=CN(C)C=C(C(=O)OC)C1c1ccc(Cl)cc1Cl
2. Cc1ccc(-c2nn(C(C)(C)C)c3ncnc(N)c23)cc1
3. CC1O[C@@H](OC2C(O)C(C)O[C@H](OC(=O)[C@]34CCC(C)(C)C[C@H]3C3=CCC5[C@@]6(C)CC(O)C(O[C@@H]7OC(CO)C(O)[C@@H](O)[C@@H]7O)[C@@](C)(C(=O)O)C6CC[C@@]5(C)[C@]3(CO)CC4)C2O[C@H]2OC(C)[C@@H](O[C@@H]3OCC(O[C@@H]4OC(CO)C(O)[C@H](O)C4O)[C@@H](O)[C@@H]3O)[C@H](O)C2O)C(O)C(O)C1O (stereo partly drawn)

Completion:
[67.5, 79, -20.6]
